test: Agonist activity at rat GPR55 expressed in human HEK293 cells assessed as effect on calcium flux incubated for 5 mins by FLIPR analysis; conditions: HEK293, 5 min
Entries and their measured EC50 follow.

Chemical Structure | Measurement
C[C@@H](Nc1ccc(-c2ccc3oc(=O)[nH]c3c2)cn1)c1ccc(F)cc1 | 2400 nM
C[C@@H](Nc1cnc(-c2cncc(CC(F)F)c2)cn1)c1ccc(F)cc1 | 4.13 nM
C[C@@H](Nc1ccc(-c2cncc(C3CC3)c2)cn1)c1ccc(F)cc1 | 514 nM
C[C@@H](Nc1ccc(-c2cncc(S(C)(=O)=O)c2)cn1)c1ccc(F)cc1 | 716 nM
CCc1cncc(-c2cnc(N[C@H](C)c3ccc(F)cc3)cn2)c1 | 32.5 nM

The value of EC50 measured for the molecule `C[C@@H](Nc1ccc(-c2cnn(C)c2)cn1)c1ccc(F)cc1` turned out to be 3510 nM

Source of measurements: ChEMBL document CHEMBL5365484
